# test: clinical
# study_conditions: human, in vivo, po, 1 mg

compound	Cmax
CC(C)(C)NCC(O)COc1cccc2c1CC(O)C(O)C2 (stereo not shown)	1 to 1.5 ng/mL

====

# test: clinical
# study_conditions: human, in vivo, po, 4 mg

compound	Cmax
CC(C)(C)NCC(O)COc1cccc2c1CC(O)C(O)C2 (stereo not shown)	2.8 to 4 ng/mL

====

# test: Plasma pharmacokinetics of clenbuterol and nadolol (Example 6)
# study_conditions: human, in vivo

compound	half-life
CC(C)(C)NCC(O)c1cc(Cl)c(N)c(Cl)c1 (stereo not shown)	12 to 31 h

====

# test: clinical
# study_conditions: human, in vivo
property_name: half-life

compound	property_name	meas_value
CC(C)(C)NCC(O)COc1cccc2c1CC(O)C(O)C2 (stereo not shown)	half-life	7 to 13 h
